System under test: T1, biotinylated hBLyS-ECD (human, UniProt Q9Y275 134-285, biotinylated with Biotin-X-X-NHS (molar ratio 7:1); sites not stated)
T1 construct: also called biotinylated immunogen; biotinylated hBLvS-ECD
T1 sequence (Q9Y275 134-285): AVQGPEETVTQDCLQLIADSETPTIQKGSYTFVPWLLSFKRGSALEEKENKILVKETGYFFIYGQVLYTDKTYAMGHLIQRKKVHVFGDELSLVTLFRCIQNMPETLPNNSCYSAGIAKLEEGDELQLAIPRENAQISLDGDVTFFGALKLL
Method summary: competition ELISA; competitor 35E6F7C3
Value kind: inhibitory rate (%)
Respond with the bare value in %.

Example entries and their recorded answers appear below.
- 35E6F7C3 (antibody, V domains shown, Mouse hybridoma antibody purified on Protein G) VH: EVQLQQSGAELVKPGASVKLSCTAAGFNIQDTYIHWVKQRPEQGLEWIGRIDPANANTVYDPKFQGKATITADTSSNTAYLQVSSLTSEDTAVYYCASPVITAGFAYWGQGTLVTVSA VL: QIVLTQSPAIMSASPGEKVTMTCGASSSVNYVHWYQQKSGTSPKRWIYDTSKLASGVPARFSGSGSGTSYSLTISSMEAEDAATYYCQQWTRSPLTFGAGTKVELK: 91
- 78C11D2D12 (antibody, V domains shown, Mouse hybridoma antibody purified on Protein G) VH: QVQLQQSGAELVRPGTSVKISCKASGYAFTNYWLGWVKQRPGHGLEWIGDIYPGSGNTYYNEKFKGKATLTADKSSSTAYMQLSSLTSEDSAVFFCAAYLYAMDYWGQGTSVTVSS VL: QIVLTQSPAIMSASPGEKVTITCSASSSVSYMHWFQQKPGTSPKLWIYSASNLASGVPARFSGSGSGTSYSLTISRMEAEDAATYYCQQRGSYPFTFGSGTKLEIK: 29

Reported inhibitory rate (%) for 97A3C2H4 (antibody, V domains shown, Mouse hybridoma antibody purified on Protein G) VH: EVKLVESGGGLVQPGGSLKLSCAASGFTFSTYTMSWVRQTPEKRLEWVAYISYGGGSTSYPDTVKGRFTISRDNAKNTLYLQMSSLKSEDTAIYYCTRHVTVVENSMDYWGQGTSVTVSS VL: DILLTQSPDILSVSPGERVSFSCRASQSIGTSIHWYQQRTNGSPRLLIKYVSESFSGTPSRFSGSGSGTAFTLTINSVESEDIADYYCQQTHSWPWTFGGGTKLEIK : what is it?
55

How about this binder: 8E7D9C7F5 (antibody, V domains shown, Mouse hybridoma antibody purified on Protein G) VH: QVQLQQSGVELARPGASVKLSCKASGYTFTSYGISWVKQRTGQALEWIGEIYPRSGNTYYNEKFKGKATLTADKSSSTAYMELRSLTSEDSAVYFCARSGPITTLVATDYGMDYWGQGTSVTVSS VL: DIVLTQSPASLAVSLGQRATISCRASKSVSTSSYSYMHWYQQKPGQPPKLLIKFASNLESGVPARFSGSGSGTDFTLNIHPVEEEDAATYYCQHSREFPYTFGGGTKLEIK
40

Please do the same for 67A2E1D10 (antibody, V domains shown, Mouse hybridoma antibody purified on Protein G) VH: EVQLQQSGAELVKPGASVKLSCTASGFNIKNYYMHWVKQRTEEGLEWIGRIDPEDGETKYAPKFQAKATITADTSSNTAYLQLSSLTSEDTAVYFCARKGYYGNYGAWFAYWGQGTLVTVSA VL: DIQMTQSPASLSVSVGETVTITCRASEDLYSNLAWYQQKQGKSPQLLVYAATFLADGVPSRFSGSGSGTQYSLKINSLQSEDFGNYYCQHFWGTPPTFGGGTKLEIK as well.
18
